Value source: the supplement of paper PMC11061612

tested on: BV-173 (Chronic Myelogenous Leukemia); assay: Bliss excess, mean over the matrix (fraction); higher = more synergy;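 further: after 72 h of two-drug dosing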
experimentalEndpoint: Bliss excess
# answer = number (no unit)

Examples with their reported Bliss excess follow.
[
  {
    "molecule": "CN(CCO)CC[C@H](CSc1ccccc1)Nc1ccc(S(=O)(=O)NC(=O)c2ccc(N3CCC([C@@H](O)c4ccccc4-c4ccc(Cl)cc4)CC3)cc2)cc1S(=O)(=O)C(F)(F)F [AZD4320] + CN(C)CCCOc1ccc(-c2ccc3ncc4c(c3c2)n(C2CCOCC2)c(=O)n4C)cn1 [AZD0156] (first compound max 1 µM, 7x7, partner max 1 µM)",
    "Bliss excess": -0.0681
  },
  {
    "molecule": "CN(CCO)CC[C@H](CSc1ccccc1)Nc1ccc(S(=O)(=O)NC(=O)c2ccc(N3CCC([C@@H](O)c4ccccc4-c4ccc(Cl)cc4)CC3)cc2)cc1S(=O)(=O)C(F)(F)F [AZD4320] + C=CCn1c(=O)c2cnc(Nc3ccc(N4CCN(C)CC4)cc3)nc2n1-c1cccc(C(C)(C)O)n1 [AZD1775] (first compound max 1 µM, partner max 1 µM)",
    "Bliss excess": -0.0038
  }
]

Next, consider the following molecule.
Find the recorded Bliss excess belonging to CC1(C)CCC(CN2CCN(c3ccc(C(=O)NS(=O)(=O)c4ccc(NCC5CCOCC5)c([N+](=O)[O-])c4)c(Oc4cnc5[nH]ccc5c4)c3)CC2)=C(c2ccc(Cl)cc2)C1 [Venetoclax] + CCN(CCO)CCCOc1ccc2c(Nc3cc(CC(=O)Nc4cccc(F)c4)[nH]n3)ncnc2c1 [AZD2811] (first compound max 1 µM, 7x7, partner max 1 µM) and report it.
-0.0739

----------
test system: IMR-5 (Neuroblastoma); test: Bliss excess, mean over the matrix (fraction); higher = more synergy
Decide by Bliss excess: equal to or exceeding -0.01 means class 1, less means class 0.

[
  {
    "molecule": "CCc1c2c(nc3ccc(O)cc13)-c1cc3c(c(=O)n1C2)COC(=O)[C@]3(O)CC [SN-38] + O=C(c1cc(Cc2n[nH]c(=O)c3ccccc23)ccc1F)N1CCN(C(=O)C2CC2)CC1 [Olaparib] (first compound max 0.3 µM, 7x7, partner max 10 µM)",
    "targetOrTestSystem": "IMR-5 (Neuroblastoma)",
    "labelClass": "class 1"
  },
  {
    "molecule": "Cc1cc2ncnn2cc1Nc1ncc2c(n1)n(C1CCOCC1)c(=O)n2C [AZD7648] + C=CCn1c(=O)c2cnc(Nc3ccc(N4CCN(C)CC4)cc3)nc2n1-c1cccc(C(C)(C)O)n1 [AZD1775] (first compound max 10 µM, partner max 1 µM)",
    "targetOrTestSystem": "IMR-5 (Neuroblastoma)",
    "labelClass": "class 0"
  },
  {
    "molecule": "Cc1c2c(nn1C)CSCc1cc(n(C)n1)CSc1cc(c3ccccc3c1)OCCCc1c(C(=O)O)n(C)c3c-2c(Cl)ccc13 [AZD5991] + CCN(CCO)CCCOc1ccc2c(Nc3cc(CC(=O)Nc4cccc(F)c4)[nH]n3)ncnc2c1 [AZD2811] (first compound max 1 µM, 7x7, partner max 1 µM)",
    "targetOrTestSystem": "IMR-5 (Neuroblastoma)",
    "labelClass": "class 0"
  },
  {
    "molecule": "CC1(C)CCC(CN2CCN(c3ccc(C(=O)NS(=O)(=O)c4ccc(NCC5CCOCC5)c([N+](=O)[O-])c4)c(Oc4cnc5[nH]ccc5c4)c3)CC2)=C(c2ccc(Cl)cc2)C1 [Venetoclax] + Cn1cnc2c(F)c(Nc3ccc(Br)cc3Cl)c(C(=O)NOCCO)cc21 [Selumetinib] (first compound max 1 µM, 7x7, partner max 3 µM)",
    "targetOrTestSystem": "IMR-5 (Neuroblastoma)",
    "labelClass": "class 1"
  },
  {
    "molecule": "COc1nnc2ccc(N3CCC(c4ccc(OCCN5CCN(C)C(=O)[C@H]5C)cc4)CC3)nn12 [AZD5153] + C[C@@H]1COCCN1C2=NC(=NC(=C2)C3(CC3)[S@](=N)(=O)C)C4=C5C=CNC5=NC=C4 [AZD6738] (first compound max 1 µM, 7x7, partner max 10 µM)",
    "targetOrTestSystem": "IMR-5 (Neuroblastoma)",
    "labelClass": "class 1"
  }
]

Form field: Bliss excess at least -0.01? Entry: CCN(CCO)CCCOc1ccc2c(Nc3cc(CC(=O)Nc4cccc(F)c4)[nH]n3)ncnc2c1 [AZD2811] + O=C(c1cc(Cc2n[nH]c(=O)c3ccccc23)ccc1F)N1CCN(C(=O)C2CC2)CC1 [Olaparib] (first compound max 1 µM, 7x7, partner max 10 µM)
class 0

Form field: Bliss excess at least -0.01? Entry: CN(CCO)CC[C@H](CSc1ccccc1)Nc1ccc(S(=O)(=O)NC(=O)c2ccc(N3CCC([C@@H](O)c4ccccc4-c4ccc(Cl)cc4)CC3)cc2)cc1S(=O)(=O)C(F)(F)F [AZD4320] + C[C@@H](Nc1cc(F)cc(F)c1)c1cc(C(=O)N(C)C)cc2c(=O)cc(N3CCOCC3)oc12 [AZD8186] (first compound max 1 µM, 7x7, partner max 3 µM)
class 1
